- Test system: SF-295 CNS
- METHOD: NCI-60 one-dose screen, 48 h (100 = growth as untreated, 0 = no growth, -100 = all killed)
- PARTICULARS: 10 µM unless noted
Compounds without any hit were thinned out: in the full panel of roughly 83,000, 20% have a hit.
REPORTED ENDPOINT: growth (%)
Answers are plain numbers, in %.

Some solved entries appear below for comparison.
O=C1Cc2c([nH]c3ccc([N+](=O)[O-])cc23)-c2ccccc2N1 18.7
C=C(C)[C@@H]1CC[C@]2(C)[C@H](CC=C3[C@@H]4C[C@](C)(C(=O)N5CCN(C)CC5)CC[C@]4(C)CC[C@]32C)[C@@]1(C)CCC#N 95
c1ccc(C2=Nc3ccccc3SC2)cc1 97.2
COc1ccc(C(=O)/C=C/c2cn(-c3ccccc3)nc2-c2cccc(Nc3ccnc4cc(Cl)ccc34)c2)cc1 106

Problem: Dear colleague, I am looking for the recorded growth of the following compound: `Cc1cc(O)ccc1C1=NN(c2ccc(S(N)(=O)=O)cc2)C(=O)CC1`
Solution: 30.4

* * *

- Tested on: OVCAR-3 ovarian
- METHOD: NCI-60 one-dose screen, 48 h
- PARTICULARS: 10 µM unless noted
The panel holds about 83,000 compounds, 20% with a hit somewhere; the sample as a whole holds those more often. Calls of active or inactive are those of the source. How the source made its calls: active means growth percent below 10; inactive means the rest.
Answer with one of the outcomes Yes for active, No for inactive

MOLECULE	LABEL CLASS
CCn1c(CN2CCN(Cc3ccccc3)CC2)nc2cc(NC(=O)c3cccs3)ccc21	Yes
O=c1[nH]cnc2nc[nH]c12	No
Nc1nc(N)c2c(n1)NC(c1sc(Cl)nc1Cl)CC(c1ccccc1)=N2 (stereo not given)	No

Problem: GET /call?item= `CCOc1cccc(/C=N/NC(=O)Cc2ccc(Nc3ccnc(C(F)(F)F)c3)cc2)c1O` returns the recorded outcome of this test.
Solution: No

Problem: GET /call?item= `CN1CCN(Cc2ccc(NC(=O)c3cnc(F)c(C#Cc4cnc(N)c5ncccc45)c3)cc2C(F)(F)F)CC1` returns the recorded outcome of this test.
Solution: No

Problem: GET /call?item= `NC(N)=N/N=C\c1ccc(OCc2ccccc2)cc1` returns the recorded outcome of this test.
Solution: No

Problem: GET /call?item= `CCc1ccc(Nc2cc(C)c3ccc(O)cc3n2)cc1` returns the recorded outcome of this test.
Solution: No

Problem: GET /call?item= `CCN1CCN(Cc2ccc(NC(=O)c3nc4ccc5[nH]ncc5c4c4c3CCCC4)cc2C(F)(F)F)CC1` returns the recorded outcome of this test.
Solution: Yes

Problem: GET /call?item= `ClCc1cccc(CSc2ncnc3c2ncn3Cc2cccc(CCl)c2)c1` returns the recorded outcome of this test.
Solution: No

Problem: GET /call?item= COc1cc(C2CC(c3cccc(Nc4ccnc5cc(Cl)ccc45)c3)=NN2c2ccccc2)cc(OC)c1OC (stereo not given) returns the recorded outcome of this test.
Solution: No

* * *

- Tested on: HCT-15 colon
- METHOD: NCI-60 one-dose screen, 48 h (100 = growth as untreated, 0 = no growth, -100 = all killed)
- PARTICULARS: 10 µM unless noted
The panel holds about 83,000 compounds, 20% with a hit somewhere; the sample as a whole holds those more often.
REPORTED ENDPOINT: growth (%)
Answers are plain numbers, in %.

Some solved entries appear below for comparison.
MOLECULE	SYSTEM UNDER TEST	growth (%)
CCN(CC)CCCC(C)Nc1cnc(C(=O)Nc2cc(C)cc3cccnc23)cn1 (stereo not given)	HCT-15 colon	59.9
COc1c(B(O)O)cccc1-c1nc2c(F)cc3n[nH]c(C)c3c2c2c1CCCC2	HCT-15 colon	18.3
Cc1cc(C)c2c(n1)sc1c(Nc3ccc(Cl)cc3Cl)ncnc12	HCT-15 colon	46.2
CCOC(CN1CCN(CC(C)C(=O)c2ccccc2)CC1)c1ccccc1 (stereo not given)	HCT-15 colon	100
CC1CN(CCCOC(=O)Nc2ccc(Cl)cc2)CCN1C(C)(C)C (stereo not given)	HCT-15 colon	114

Working through the 3 molecules below one at a time, give growth for each.
1. CS(=O)(=O)Nc1cc(-c2cc3ncc(C#N)c(Nc4ccc(Oc5ccccc5)c(Cl)c4)c3s2)cnc1Cl
2. CCCc1cc2c(cc1CN(Cc1cc3c(cc1CCC)OCO3)C(=N)OCC)OCO2
3. Cc1nc([C@H]2CC[C@H]3[C@@H]4CCC5=CC(=O)CC[C@]5(C)[C@H]4CC[C@]23C)cs1

Solution:
1: 37.2; 2: 94.8; 3: 75.2

Working through the 2 molecules below one at a time, give growth for each.
1. Nc1ncnc2c1N=C(c1ccc(F)cc1)CC(c1sc(Cl)nc1Cl)N2 (stereo not given)
2. Cc1ccc2cc3c(NC(=O)c4cccnc4)nn(C)c3nc2c1

Solution:
102
91.6
